src = the supplement of paper PMC10307832

System: NCI-H2347
experimentSummary: relative viability (nuclei count vs DMSO), 5 days (fraction); higher = more cells survive
experimentalContext: first compound 0.01581 µM
measurementType: relative viability

| molecule | testedOn | measurementType | recordedMeasurement |
| --- | --- | --- | --- |
| COc1cc2nccc(Oc3ccc(NC(=O)Nc4cc(C)on4)c(Cl)c3)c2cc1OC [Tivozanib] + C[C@@H](Oc1cc(-c2cnn(C3CCNCC3)c2)cnc1N)c1c(Cl)ccc(F)c1Cl [Crizotinib] (partner 1 µM) | NCI-H2347 | relative viability | 0.679 |
| Nc1ccn([C@@H]2O[C@H](CO)[C@@H](O)[C@@H]2O)c(=O)n1 [Cytarabine] + Cc1nc(NC(=O)N2CCC[C@H]2C(N)=O)sc1-c1ccnc(C(C)(C)C(F)(F)F)c1 [Alpelisib] (partner 2 µM) | NCI-H2347 | relative viability | 0.964 |
| Nc1ccn([C@@H]2O[C@H](CO)[C@@H](O)[C@@H]2O)c(=O)n1 [Cytarabine] + Nc1ncn([C@H]2C[C@H](O)[C@@H](CO)O2)c(=O)n1 [Decitabine] (partner 2 µM) | NCI-H2347 | relative viability | 0.56 |

* * *

System: COR-L 105
experimentSummary: relative viability (nuclei count vs DMSO), 5 days (fraction); higher = more cells survive
experimentalContext: first compound 0.000632 µM
measurementType: relative viability

| compound | measurementType | recordedMeasurement |
| --- | --- | --- |
| CC(=O)O[C@@]12CO[C@@H]1C[C@H](O)[C@@]1(C)C(=O)[C@H](O)C3=C(C)[C@@H](OC(=O)[C@H](O)[C@@H](NC(=O)OC(C)(C)C)c4ccccc4)C[C@@](O)([C@@H](OC(=O)c4ccccc4)[C@H]21)C3(C)C [Docetaxel] + COc1cccc2cc(-c3nc([C@H]4CC[C@H](C(=O)O)CC4)n4ncnc(N)c34)[nH]c12 [OSI-027] (partner 0.5 µM) | relative viability | 0.654 |

* * *

Tested on: A-427
experimentSummary: relative viability (nuclei count vs DMSO), 5 days (fraction); higher = more cells survive
experimentalContext: first compound 0.1581 µM
The label is fulfilled for relative viability below 0.6 and not fulfilled for relative viability equal to or exceeding 0.6.

| compound | classLabel |
| --- | --- |
| COc1cc2nccc(Oc3ccc(NC(=O)Nc4cc(C)on4)c(Cl)c3)c2cc1OC [Tivozanib] + Nc1ncn([C@H]2C[C@H](O)[C@@H](CO)O2)c(=O)n1 [Decitabine] (partner 2 µM) | fulfilled |
| Nc1ccn([C@@H]2O[C@H](CO)[C@@H](O)[C@@H]2O)c(=O)n1 [Cytarabine] + CS(=O)(=O)N1CCN(Cc2cc3nc(-c4cccc5[nH]ncc45)nc(N4CCOCC4)c3s2)CC1 [Pictilisib] (partner 1 µM) | fulfilled |
| Nc1ccn([C@@H]2O[C@H](CO)[C@@H](O)[C@@H]2O)c(=O)n1 [Cytarabine] + Cc1nc(NC(=O)N2CCC[C@H]2C(N)=O)sc1-c1ccnc(C(C)(C)C(F)(F)F)c1 [Alpelisib] (partner 2 µM) | fulfilled |
| Nc1ccn([C@@H]2O[C@H](CO)[C@@H](O)[C@@H]2O)c(=O)n1 [Cytarabine] + CC(=O)Nc1cccc(-n2c(=O)n(C3CC3)c(=O)c3c(Nc4ccc(I)cc4F)n(C)c(=O)c(C)c32)c1 [Trametinib] (partner 0.02 µM) | fulfilled |
| COc1cc2nccc(Oc3ccc(NC(=O)Nc4cc(C)on4)c(Cl)c3)c2cc1OC [Tivozanib] + COc1cc2c(Oc3ccc(NC(=O)C4(C(=O)Nc5ccc(F)cc5)CC4)cc3F)ccnc2cc1OCCCN1CCOCC1 [Foretinib] (partner 0.25 µM) | not fulfilled |
| COc1cc2nccc(Oc3ccc(NC(=O)Nc4cc(C)on4)c(Cl)c3)c2cc1OC [Tivozanib] + O=C(c1cc(Cc2n[nH]c(=O)c3ccccc23)ccc1F)N1CCN(C(=O)C2CC2)CC1 [Olaparib] (partner 8 µM) | not fulfilled |
| COc1cc2nccc(Oc3ccc(NC(=O)Nc4cc(C)on4)c(Cl)c3)c2cc1OC [Tivozanib] + N=C(N)NC(=N)NCCc1ccccc1 [Phenformin] (partner 250 µM) | fulfilled |
| COc1cc2nccc(Oc3ccc(NC(=O)Nc4cc(C)on4)c(Cl)c3)c2cc1OC [Tivozanib] + C[C@]1(O)C[C@@H](c2nc(-c3ccc4ccc(-c5ccccc5)nc4c3)c3c(N)nccn32)C1 [Linsitinib] (partner 1 µM) | not fulfilled |
| COc1cc2nccc(Oc3ccc(NC(=O)Nc4cc(C)on4)c(Cl)c3)c2cc1OC [Tivozanib] + CC(=O)Nc1cccc(-n2c(=O)n(C3CC3)c(=O)c3c(Nc4ccc(I)cc4F)n(C)c(=O)c(C)c32)c1 [Trametinib] (partner 0.02 µM) | not fulfilled |
| Nc1ccn([C@@H]2O[C@H](CO)[C@@H](O)[C@@H]2O)c(=O)n1 [Cytarabine] + Cc1nc(Nc2ncc(C(=O)Nc3c(C)cccc3Cl)s2)cc(N2CCN(CCO)CC2)n1 [Dasatinib] (partner 0.075 µM) | fulfilled |
| Nc1ccn([C@@H]2O[C@H](CO)[C@@H](O)[C@@H]2O)c(=O)n1 [Cytarabine] + CCNC(=O)c1noc(-c2cc(C(C)C)c(O)cc2O)c1-c1ccc(CN2CCOCC2)cc1 [Luminespib] (partner 0.01 µM) | fulfilled |
| Nc1ccn([C@@H]2O[C@H](CO)[C@@H](O)[C@@H]2O)c(=O)n1 [Cytarabine] + CC(=O)c1c(C)c2cnc(Nc3ccc(N4CCNCC4)cn3)nc2n(C2CCCC2)c1=O [Palbociclib] (partner 0.5 µM) | fulfilled |
| Nc1ccn([C@@H]2O[C@H](CO)[C@@H](O)[C@@H]2O)c(=O)n1 [Cytarabine] + Nc1ncn([C@H]2C[C@H](O)[C@@H](CO)O2)c(=O)n1 [Decitabine] (partner 2 µM) | fulfilled |
